Kindly supply the reported pIC50 values for the records listed here.
Target: T1, Cynomolgus macaques TSLP recombinant protein (Cynomolgus macaques, UniProt Q969D9 29-159 (human entry), limits assumed, biotinylated in the blocking assays (sites not given))
T1 construct: also called cyTSLP; biotinylated Cynomolgus macaques TSLP protein
T1 chain: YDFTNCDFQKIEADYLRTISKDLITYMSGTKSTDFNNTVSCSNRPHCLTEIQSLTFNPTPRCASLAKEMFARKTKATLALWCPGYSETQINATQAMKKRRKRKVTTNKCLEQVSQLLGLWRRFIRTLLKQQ
Assay: competition ELISA, biotin-cynomolgus TSLP to coated cynomolgus TSLPR-Fc
Give bare numbers, as −log10 of the molar value.

Examples with answers:
| BINDER | pIC50 |
| --- | --- |
| 39G5-H8 chimeric antibody (antibody, V domains shown) VH: QVQLLQSGPQLVRPGASVKISCKASGYSFISYWIHWVKQRPGQGLEWIGIIDPSDSDTSLNQKFKDKATLTVDKSSTTAYIQLSSPTSEDSAVYYCARSLDGYYDYWGQGTTLTVSS VL: DIQMTQSPASLSASVGETVTITCRASENIYSYLAWYQQKQGKSPQLLVYNARTLPEGVPSRFSGSGSGTQFSLKINSLQPEDFGIYYCQHHYTTPWTFGGGTKLEIK | 8.76 |
| 80E11 chimeric antibody (antibody, V domains shown) VH: QVQLQQSGPQLVRPGASVKISCKASGYSFTSYWMHWVKQRPGQGLEWIGVIDPSDSETILNQKFKDKATLTVDKSSSTAYMQFSSPTSEDSAVYYCARSLDGYYDYWGQGTTLTVSS VL: DIQMTQSPASLSASVGETVTITCRAGENIYSYLAWYQQKQGKSPQLLVYNAKTLAEGVPSRFSGSASGTQFSLKINSLQPEDFGSYYCQHFWGTPWAFGGGTRLEIK | 8.94 |

// next item, pIC50 requested
Query: So what does the record say about pIC50 for 76A8 chimeric antibody (antibody, V domains shown) VH: QVQLQQSGPQLVRPGASVKISCKASGYSFTSYWMHWVKQRPGQGLEWIGLIDPSDSETGLNQRFKDKATLTVDNPSSTAYMQLSSPTSEDSAVYYCARSLDGYYDYWGQGTTLTVSS VL: DIQMIQSPASLSASVGETVTITCRASGNIHNYLAWYQQKQGKSPQLLVYNAKTLADGVPSRFSGSGSGTQYSLKINSLQPEDFGSYYCQHFWSTPWTFGGGTRLEIK ?
Reply: 9.14
